assay: HepG2 liver cancer cell viability effects, profiling panel, resazurin fluorescence, 24 h, PK04 Diversity Set (AID 1172); details: higher = more signal; also: test concentration not given here
quantity.measured: z-score
Quick one: just the number, no unit, thanks!

// C[C@H]1ON(c2ccc(C(=O)OC(C)(C)C)cc2)[C@@H](c2ccc(O)cc2)[C@@H]1C(=O)N1C(=O)OC[C@@H]1c1ccccc1 : z-score value = -0.319

// CC[C@@H]1[C@H]2C3C(=O)N(CC)C(=O)C3CC(=O)[C@H]2[C@H](c2ccc(C)cc2)N1S(=O)(=O)c1ccc(C)cc1 (stereo partly drawn) : z-score value = -0.881

// COCCCNC(=O)[C@]1(Cc2ccccc2CN=[N+]=[N-])N=C(c2ccc(OCCCO)cc2)O[C@@H]1c1ccccc1 : z-score value = 1.27

// C=C(COC)/C(=C/C[C@@H](OC(=O)c1ccncc1)c1ccc(CO)o1)c1cnc2ccccc2c1 : z-score value = 0.7

// NC(=O)N1C(=O)C2C(C1=O)C1C=C(c3ccc(CO)cc3)C2C(C2CC2)N1Cc1sc2ccccc2c1Cl (stereo not drawn) : z-score value = -0.131

// COC(=O)[C@@]1(Cc2ccc(OC)cc2)[C@H]2c3cc(C(=O)N(C)C)n(Cc4nc5ccccc5[nH]4)c3C[C@H]2CN1C(=O)c1ccccc1 : z-score value = 0.014

// CCCCC(=C=CC[C@@H](O)c1ccc(OCCO)cc1)C[C@@H](O)COCc1ccccc1 : z-score value = 0.931

// C#CCNC(=O)[C@H](Cc1ccccc1)NC(=O)[C@@H](N=[N+]=[N-])C(C)C : z-score value = 0.664

// O=C1O[C@@H](c2ccccc2)[C@@H](c2ccccc2)N2[C@@H](c3ccccc3OCCO)[C@]3(C(=O)Nc4ccc(C#CCCO)cc43)[C@@H](C(=O)Nc3nc4ccccc4s3)[C@H]12 : z-score value = -0.0116

// CCCc1cccc(=O)o1 : z-score value = 0.866

// COc1ccc([Si](C)(C)[C@@H]2[C@@H](CC(=O)N3CCC[C@H]3CO)O[C@]3(C(=O)N(Cc4ccc(N5C(=O)c6cccc7cccc5c67)cc4)c4ccccc43)[C@H]2C)cc1 : z-score value = -2.57

// CC(=O)n1cc(C(O)C2C=CC3C(=O)N(c4ccccc4)C(=O)C3N2Nc2ccccc2)c2ccccc21 (stereo not drawn) : z-score value = -1.51

// C=C(CCCC)/C(=C/C[C@@H](OC(=O)c1ccncc1)c1cccc(OCCO)c1)c1cnc2ccccc2c1 : z-score value = 0.0976

// O=C1OCCC=C[C@H]2OC34C=CCN(c5ccc(Cl)cc5)C(=O)[C@H]3N(CCCCCO)C(=O)[C@@H]4C12 (stereo partly drawn) : z-score value = 1.25

// CCOC(=O)C1=CC[C@@H](c2ccccc2C(F)(F)F)N(S(=O)(=O)c2ccc(C)cc2)C1 : z-score value = -0.217

// CCOC(=O)C1=CC[C@@H](c2ccc([N+](=O)[O-])cc2)N(S(=O)(=O)c2ccc(C)cc2)[C@H]1c1ccccc1 : z-score value = 0.468

// CC(CO)N1C(=O)[C@@H]2C3C(=O)OCCC/C=C\[C@H]3OC23C=CCN(Cn2nnc4ccccc42)C(=O)[C@@H]13 (stereo partly drawn) : z-score value = 0.256

// COc1ccc([Si](C)(C)[C@H]2[C@H](CCn3cc([C@H](O)c4ccccc4)nn3)O[C@@]3(C(=O)N(Cc4cccc(N5C(=O)c6cccc7cccc5c67)c4)c4ccccc43)[C@@H]2C)cc1 : z-score value = -0.717

// C=CCNC(=O)[C@@H]1[C@H]2C(=O)O[C@H](c3ccccc3)[C@H](c3ccccc3)N2[C@H](c2ccc(OCCO)cc2)[C@@]12C(=O)N(C(=O)OCCOC)c1ccc(C#CC3=CCCCC3)cc12 : z-score value = -0.344

// CC(C)(C)OC(=O)CC[C@]1(C(=O)O)N=C(c2ccc(OCCCO)cc2)O[C@H]1c1ccccc1 : z-score value = 1.29

// C=CC[C@]12N=C(c3ccc(OCCCO)cc3)O[C@H]1c1ccccc1N(C)C2=O : z-score value = -0.782

// C=CCOC(=O)[C@H]1[C@@H]2C(=O)O[C@@H](c3ccccc3)[C@@H](c3ccccc3)N2[C@@H](c2ccc(OCCOC(=O)[C@H]3C[C@H]4C(=O)N[C@@H](Cc5ccccc5)C(=O)N4[C@H]3c3ccc(O)cc3)cc2)[C@]12C(=O)Nc1ccc(I)cc12 : z-score value = -0.16

// CO[C@H]1O[C@H](CO)[C@@H](OC(=O)Nc2ccccc2-c2ccccc2)[C@H](OC(=O)Nc2ccc3c(c2)OCO3)[C@@H]1OC(=O)Nc1ccc2c(c1)OCO2 : z-score value = -1.18

// COC(=O)[C@@]1(Cc2ccc(F)cc2)[C@H]2c3cc(C(=O)N4CCCC4)n(CCc4c[nH]c5ccc(OC)cc45)c3C[C@H]2CN1C(=O)c1ccccc1 : z-score value = -0.946

// CC(C)N1C(=O)[C@@]2(c3ccc([N+](=O)[O-])cc3)CC(=O)N(C3CCCCC3)[C@@H]2c2ccc(CO)cc21 : z-score value = 1.86

// NC(=O)NCC#Cc1ccc2c(c1)[C@]1(C(=O)N2)[C@H](c2ccc(O)cc2)N2[C@H](c3ccccc3)[C@H](c3ccccc3)OC(=O)[C@H]2[C@@H]1C(=O)Nc1nc2ccccc2s1 : z-score value = 0.971

// COc1c(C)cc(-c2cc3c(c(Cc4ccccc4)n2)[Si](C(C)C)(C(C)C)OC3)cc1C : z-score value = -0.683

// O=C(O)[C@]1(Cc2ccccc2)N=C(c2ccc(OCCCO)cc2)O[C@@H]1c1ccccc1 : z-score value = 0.424
